molecular target: recombinant Human Phosphodiesterase B2 (PDE4B2) (Homo sapiens, UniProt Q07343); experiment: Human Phosphodiesterase B2 Radiometric Assay (yttrium silicate SPA beads, [3H]cyclic AMP); assay type: biochemical; details: recombinant human PDE4B2, radiometric SPA assay, 8 nM [3H]cyclic AMP; read-out: PDE4B2 pIC50 (converted)
Sequence (Q07343 1-564 isoform Q07343-2): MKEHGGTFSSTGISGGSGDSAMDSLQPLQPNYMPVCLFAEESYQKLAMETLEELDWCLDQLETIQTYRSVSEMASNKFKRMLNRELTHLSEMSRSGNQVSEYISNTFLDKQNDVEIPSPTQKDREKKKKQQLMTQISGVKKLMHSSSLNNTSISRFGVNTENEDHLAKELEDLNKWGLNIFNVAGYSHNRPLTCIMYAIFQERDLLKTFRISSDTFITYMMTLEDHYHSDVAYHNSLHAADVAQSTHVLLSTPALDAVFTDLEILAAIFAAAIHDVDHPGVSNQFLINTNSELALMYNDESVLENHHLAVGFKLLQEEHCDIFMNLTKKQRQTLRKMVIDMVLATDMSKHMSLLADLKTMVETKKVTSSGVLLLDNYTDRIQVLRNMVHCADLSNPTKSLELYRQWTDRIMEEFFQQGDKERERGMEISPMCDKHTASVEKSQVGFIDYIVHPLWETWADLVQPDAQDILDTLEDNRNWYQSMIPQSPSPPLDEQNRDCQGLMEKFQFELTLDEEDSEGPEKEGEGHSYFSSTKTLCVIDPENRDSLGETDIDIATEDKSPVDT
Where a name gives a salt, the structure may show the parent alone.
We label by threshold. Values of IC50 strictly beneath 50 pM are met. Values of 50 pM and up are not met.

{"MOLECULE": "CCCN1CCN(Cc2ccc(-c3cccc(-n4c(=O)n([C@H]5CC[C@@H](NC(=O)C6(N(C)C)CC6)CC5)c(=O)c5cc(F)cnc54)c3)cc2)CC1 [Example 208]", "GROUP": "met"}
{"MOLECULE": "CN(C)Cc1cccc(-c2cccc(-n3c(=O)n([C@H]4CC[C@@H](NC(=O)c5cn6cc(F)ccc6n5)CC4)c(=O)c4cc(F)cnc43)c2)c1 [Example 16]", "GROUP": "not met"}
{"MOLECULE": "C[N+](C)(C)Cc1ccc(-c2cccc(-n3c(=O)n([C@H]4CC[C@@H](NC(=O)c5cn6cc(F)ccc6n5)CC4)c(=O)c4cc(F)cnc43)c2)cc1 [Example 87]", "GROUP": "not met"}
{"MOLECULE": "O=c1c2cc(F)cnc2n(-c2cccc(-c3ccc(O)cc3CN3CCC[C@H]3CO)c2)c(=O)n1[C@H]1CC[C@@H](NCc2cn3cc(F)ccc3n2)CC1 [Example 330]", "GROUP": "not met"}
{"MOLECULE": "CN(C)C(=O)CN1CCN(Cc2ccc(-c3cccc(-n4c(=O)n([C@H]5CC[C@@H](NC(=O)c6cn7c(n6)CCCC7)CC5)c(=O)c5cc(F)cnc54)c3)cc2)CC1 [Example 137]", "GROUP": "met"}
{"MOLECULE": "O=C1CN(Cc2cc(O)ccc2-c2cccc(-n3c(=O)n([C@H]4CC[C@@H](NCc5cn6cc(F)ccc6n5)CC4)c(=O)c4cc(F)cnc43)c2)CCN1 [Example 377]", "GROUP": "not met"}
{"MOLECULE": "O=C(N[C@H]1CC[C@@H](n2c(=O)c3cc(F)cnc3n(-c3cccc(-c4ccc(CN5CCN(C6CCCC6)CC5)cc4)c3)c2=O)CC1)c1cn2c(n1)CCCC2 [Example 221]", "GROUP": "met"}
{"MOLECULE": "CN1CCCC1c1ccc2nc(C(=O)N[C@H]3CC[C@@H](n4c(=O)c5cc(F)cnc5n(-c5cccc(-c6ccccc6)c5)c4=O)CC3)cn2c1 (stereo partly shown) [Example 2]", "GROUP": "not met"}
{"MOLECULE": "Cc1cc(C(=O)N[C@H]2CC[C@@H](n3c(=O)c4cc(F)cnc4n(-c4cccc(-c5ccc(CN6CCN(C(C)C)CC6)cc5)c4)c3=O)CC2)no1 [Example 243]", "GROUP": "met"}
{"MOLECULE": "CN(Cc1ccccc1)C(=O)c1cccc(-n2c(=O)n([C@H]3CC[C@@H](NC(=O)c4cn5cc(F)ccc5n4)CC3)c(=O)c3cc(F)cnc32)c1 [Example 90]", "GROUP": "not met"}
{"MOLECULE": "O=C(N[C@H]1CC[C@@H](n2c(=O)c3cc(F)cnc3n(-c3cccc(-c4ccc(CN5CCCOCC5)cc4)c3)c2=O)CC1)C1CC1 [Example 306]", "GROUP": "not met"}
{"MOLECULE": "NC1(C(=O)N[C@H]2CC[C@@H](n3c(=O)c4cc(F)cnc4n(-c4cccc(-c5ccccc5CN5CCOCC5)c4)c3=O)CC2)CCCC1 [Example 70, trifluoroacetate salt]", "GROUP": "not met"}
{"MOLECULE": "CC(=O)n1cc(CN[C@H]2CC[C@@H](n3c(=O)c4cc(F)cnc4n(-c4cccc(-c5ccc(CN6CCCOCC6)cc5)c4)c3=O)CC2)c2ccccc21 [Example 266]", "GROUP": "not met"}
{"MOLECULE": "COC[C@H](C)N(C)Cc1cc(O)ccc1-c1cccc(-n2c(=O)n([C@H]3CC[C@@H](NCc4cn5cc(F)ccc5n4)CC3)c(=O)c3cc(F)cnc32)c1 [Example 315]", "GROUP": "not met"}
{"MOLECULE": "COCCN(C)Cc1cc(O)ccc1-c1cccc(-n2c(=O)n([C@H]3CC[C@@H](NCc4cn5cc(F)ccc5n4)CC3)c(=O)c3cc(F)cnc32)c1 [Example 327]", "GROUP": "not met"}
{"MOLECULE": "Cc1cc(C(=O)N[C@H]2CC[C@@H](n3c(=O)c4cc(F)cnc4n(-c4cccc(-c5ccc(CNCCC(C)C)cc5)c4)c3=O)CC2)nn1C [Example 115]", "GROUP": "met"}
{"MOLECULE": "Cc1nc(C(=O)N[C@H]2CC[C@@H](n3c(=O)c4cc(F)cnc4n(-c4cccc(-c5ccc(CN6CCC(N7CCCCC7)CC6)cc5)c4)c3=O)CC2)cs1 [Example 357]", "GROUP": "met"}
{"MOLECULE": "O=C(N[C@H]1CC[C@@H](n2c(=O)c3cc(F)cnc3n(-c3cccc(Cc4ccccc4)c3)c2=O)CC1)c1cn2ccccc2n1 [Example 34]", "GROUP": "not met"}
{"MOLECULE": "Cn1cc(CN[C@H]2CC[C@@H](n3c(=O)c4cc(F)cnc4n(-c4cccc(-c5ccc(O)cc5CN5CCOCC5)c4)c3=O)CC2)c(-c2ccccc2)n1 [Example 247]", "GROUP": "not met"}
